Can you tell me z-score for the items I'm about to list?
- test_system: NADPH oxidase 4 (Homo sapiens)
- assay_summary: compounds shifting NOX4 Amplex Red fluorescence – cell-based, HEK293-NOX4, tetracycline-induced, NOX inhibitor project, primary screen (AID 1160)
- applied_conditions: HEK293-NOX4, Amplex Red H2O2 fluorescence, 45 min; higher = more signal, called active from +8 up or from −8 down
Kindly provide the number alone.

Give recorded z-score. Cc1cc(C)c(C(O)C2C=CC3C(=O)N(c4ccccc4)C(=O)C3N2Nc2ccc([N+](=O)[O-])cc2)c(C)c1 (stereo unspecified)
-0.661

Give recorded z-score. CCCCC(=C=CC[C@H](O)c1cccc(OCCO)c1)C[C@H](O)COCc1ccccc1
-1.29

Give recorded z-score. COC(=O)C(CC#Cc1ccc2c(c1)[C@]1(C(=O)N2)[C@H](c2ccccc2OCCO)N2[C@H](c3ccccc3)[C@H](c3ccccc3)OC(=O)[C@H]2[C@@H]1C(=O)Nc1nc2ccccc2s1)C(=O)OC
0.517

Give recorded z-score. C[N+](C)(C)CCCCCCNC(=O)[C@@H]1C[C@@H]2C(=O)NCC(=O)N2[C@@H]1c1ccc(O)cc1
0.899

Give recorded z-score. C=CCNC(=O)[C@H]1[C@@H]2C(=O)O[C@@H](c3ccccc3)[C@@H](c3ccccc3)N2[C@@H](c2ccc(O)cc2)[C@]12C(=O)N(C(=O)OCCOC)c1ccc(C#CC3(O)CCCCCC3)cc12
0.903

Give recorded z-score. COc1ccc([Si](C)(C)[C@@H]2[C@@H](CCO)O[C@]3(C(=O)N(Cc4ccccc4)c4ccc(N5C(=O)COc6ccccc65)cc43)[C@H]2C)cc1
1.33

* * *

- assay_summary: compounds binding Alexa647 anti-His antibody – biochemical, small-molecule microarray, 635 nm fluorescence, artefact control for SMM control protein annotation, primary screen (AID 1128);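 also: score merges feature fluorescence with signal-to-noise for each printed compound spot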
- applied_conditions: higher = more signal
The threshold is inclusive: composite z-score of exactly 0.8 counts as 1 (yes); values below receive 0 (no).

Please check the record COc1ccccc1CN1C(=O)c2ccccc2[C@@]2(Cc3ccccc3N(C3CC3)C2=O)[C@@H]1c1ccc(CO)cc1 and state if its composite z-score is at or above 0.8.
0 (no)

Please check the record CC(C)N1C(=O)c2ccccc2[C@](C)(C(=O)O)[C@@H]1c1ccc(CO)cc1 and state if its composite z-score is at or above 0.8.
0 (no)

Please check the record COC(=O)[C@@]1(Cc2ccc(OC)cc2)[C@H]2c3cc(C(=O)N4CCCC4)n(CCc4ccc(O)c(OC)c4)c3C[C@H]2CN1C(=O)c1ccccc1 and state if its composite z-score is at or above 0.8.
0 (no)

Please check the record O=C1OCC=C[C@H]2OC34C=CCN(CCN5CCOCC5)C(=O)[C@H]3N(CCCCCO)C(=O)[C@@H]4[C@@H]12 (stereo partly drawn) and state if its composite z-score is at or above 0.8.
1 (yes)

Please check the record COC(=O)C(CC#Cc1ccc2c(c1)[C@]1(C(=O)N2)[C@H](C(=O)N2CCc3cc(OC)c(OC)cc3C2)[C@H]2C(=O)O[C@H](c3ccccc3)[C@H](c3ccccc3)N2[C@@H]1c1ccc(O)cc1)C(=O)OC and state if its composite z-score is at or above 0.8.
1 (yes)

Please check the record CC(C)c1ccc(NN2C(C(O)c3cccs3)C=CC3C(=O)N(c4ccccc4)C(=O)C32)cc1 (stereo not drawn) and state if its composite z-score is at or above 0.8.
0 (no)

Please check the record CCCNC(=O)[C@@H]1c2ccccc2C(=O)N(CC23CC4CC(CC(C4)C2)C3)[C@H]1c1ccc(CO)cc1 and state if its composite z-score is at or above 0.8.
0 (no)

Please check the record [N-]=[N+]=NCc1ccccc1C[C@]1(C(=O)NCCN2CCOCC2)COC(c2ccc(OCCCO)cc2)=N1 and state if its composite z-score is at or above 0.8.
0 (no)

Please check the record N#Cc1ccc(NN2C(C(O)c3ccccc3)C=CC3C(=O)N(c4ccccc4)C(=O)C32)cc1 (stereo not drawn) and state if its composite z-score is at or above 0.8.
0 (no)

Please check the record C=C(CCCC)/C(=C/C[C@H](OC(=O)c1ccncc1)c1ccc(CO)o1)c1cc(C(=O)OC)ccc1OC and state if its composite z-score is at or above 0.8.
1 (yes)

Please check the record CCCC=C(CCC)[C@@H](NS(=O)(=O)CC)c1ccccc1 and state if its composite z-score is at or above 0.8.
0 (no)

Please check the record COCCOC(=O)N1C(=O)[C@@]2(c3cc(C#Cc4ccc(OC)cc4)ccc31)[C@H](C(=O)N1CCc3cc(OC)c(OC)cc3C1)[C@H]1C(=O)O[C@H](c3ccccc3)[C@H](c3ccccc3)N1[C@@H]2c1ccc(OCCO)cc1 and state if its composite z-score is at or above 0.8.
1 (yes)

Please check the record CCCCCCCCCCC(O)C1C=CC2C(=O)NC(=O)C2N1Nc1ccccn1 (stereo not drawn) and state if its composite z-score is at or above 0.8.
0 (no)

Please check the record COc1ccc(C(=O)Nc2ccc3c(c2)[C@]2(O[C@@H](CCO)[C@H]([Si](C)(C)c4ccc(OC)cc4)[C@H]2C)C(=O)N3Cc2ccccc2)cc1 and state if its composite z-score is at or above 0.8.
0 (no)

Please check the record COC(=O)[C@@]1(Cc2ccc(OC)cc2)[C@H]2c3cc(C(=O)N4CCCC4)n(Cc4ccc(C)o4)c3C[C@H]2CN1C(=O)c1ccccc1 and state if its composite z-score is at or above 0.8.
1 (yes)

Please check the record CCCCC(=C=CC[C@H](O)c1cccc(OCCO)c1)C[C@H](O)COCc1ccccc1 and state if its composite z-score is at or above 0.8.
0 (no)

Please check the record C=CCNC(=O)[C@@H]1[C@H]2C(=O)O[C@H](c3ccccc3)[C@H](c3ccccc3)N2[C@H](c2ccc(O)cc2)[C@@]12C(=O)Nc1ccc(C#CCCO)cc12 and state if its composite z-score is at or above 0.8.
0 (no)

Please check the record COCCOC(=O)N1C(=O)[C@@]2(c3ccccc31)[C@H](c1ccccc1OCCO)N1[C@H](c3ccccc3)[C@H](c3ccccc3)OC(=O)[C@H]1[C@@H]2C(=O)N1CCc2cc(OC)c(OC)cc2C1 and state if its composite z-score is at or above 0.8.
1 (yes)

Please check the record O=C(N1CCOCC1)[C@@]1(CCS(=O)(=O)c2ccccc2)COC(c2ccc(OCCCO)cc2)=N1 and state if its composite z-score is at or above 0.8.
0 (no)

Please check the record C[N+](C)(C)CCCCCCNC(=O)[C@@H]1C[C@@H]2C(=O)NCC(=O)N2[C@@H]1c1ccc(O)cc1 and state if its composite z-score is at or above 0.8.
1 (yes)

Please check the record OCc1ccc(-c2cc[n+](Cc3cccc(OC(F)(F)F)c3)cc2)cc1 and state if its composite z-score is at or above 0.8.
1 (yes)

Please check the record COc1cc(C(O)C2C=CC3C(=O)NC(=O)C3N2Nc2ccc(Cl)cc2Cl)cc(OC)c1OC (stereo not drawn) and state if its composite z-score is at or above 0.8.
1 (yes)

Please check the record COC(=O)[C@@]1(Cc2ccccc2)[C@H]2c3cc(C(=O)N4CCCC4)n(CCO)c3C[C@H]2CN1C(=O)c1ccccc1 and state if its composite z-score is at or above 0.8.
1 (yes)
